# Test system: NIH3T3
# testDescription: GSK_TCAKS: pIC50 NIH 3T3 cell line viability assay using luminiscence. Tissue culture surface treated assay plates (1536-well) were used. […] The 100% cells survival control was determined exposing the host-cells to a 0.5% DMSO concentration, whereas the 100% toxicity control was achieved by seeding the cells in presence of Amphotericin B at 50uM. Plates were incubated for four days at 37C, 5% CO2. The assay readout was developed by addition of 5uL of CellTiter-Glo Reagent following the manufacturer's instructions. Luminiscence was measured using a ViewLux.
# Type: functional, cell-based
# experimentalSetup: Mus musculus, NIH3T3, 96 h
propertyMeasured: IC50 (µM)

[[record]]
molecule = "CC1CN(S(=O)(=O)c2ccc(NC(=O)c3cc(C4CC4)nc4c3cnn4C(C)C)cc2)CC(C)O1 (configuration not stated)"
propertymeasured = "IC50"
relationsymbol = ">"
numericresult = 50.1

[[record]]
molecule = "O=C(NCCc1ccccc1Cl)c1cccn1-c1cccnc1"
propertymeasured = "IC50"
relationsymbol = "="
numericresult = 31.6

[[record]]
molecule = "C=CCn1nc([N+](=O)[O-])nc1Oc1ccc(Cl)cc1Cl"
propertymeasured = "IC50"
relationsymbol = "="
numericresult = 50.1

[[record]]
molecule = "CCn1nccc1CN(C)C(=O)C=Cc1ccc(Cl)cc1"
propertymeasured = "IC50"
relationsymbol = ">"
numericresult = 50.1

[[record]]
molecule = "COc1cccc(C(=O)[C@H]2C[C@@H]2CN(Cc2cccnc2)Cc2cccnc2)c1"
propertymeasured = "IC50"
relationsymbol = "="
numericresult = 20

[[record]]
molecule = "Cc1cc2ncn(-c3ccc([N+](=O)[O-])cc3C#N)c2cc1C"
propertymeasured = "IC50"
relationsymbol = ">"
numericresult = 50.1

[[record]]
molecule = "Cc1cc(N(C)C)nc2ccc(Cc3cnc(N)nc3N)cc12"
propertymeasured = "IC50"
relationsymbol = "="
numericresult = 10

[[record]]
molecule = "O=C(Nc1ccc(Br)c(Cl)c1)Nc1ccc2c(c1)OCO2"
propertymeasured = "IC50"
relationsymbol = "="
numericresult = 15.8

[[record]]
molecule = "O=C(Cn1cnc2cc([N+](=O)[O-])ccc2c1=O)NCCc1ccc(Cl)cc1Cl"
propertymeasured = "IC50"
relationsymbol = ">"
numericresult = 50.1

[[record]]
molecule = "c1ccc2c(CCOc3nccnc3-c3ccncc3)c[nH]c2c1"
propertymeasured = "IC50"
relationsymbol = "="
numericresult = 20

[[record]]
molecule = "Cc1[nH]c2ccccc2c(=O)c1Cc1c(C)[nH]c2ccccc2c1=O"
propertymeasured = "IC50"
relationsymbol = ">"
numericresult = 50.1

[[record]]
molecule = "CNc1cc(C)nc(C2CN(C(=O)c3n[nH]c4ccccc34)CCO2)c1 (configuration not stated)"
propertymeasured = "IC50"
relationsymbol = ">"
numericresult = 50.1


Each recorded value in this set is attributed to ChEMBL document CHEMBL3430912.
